Assignment: determine reported MIC for the given compounds.
Tested on: Enterococcus faecium
Assay remarks: Antibacterial activity against Enterococcus faecium for 18 to 20 hrs by broth microdilution method
Format: functional
Express your answer in µg/mL, writing the number without its unit.

Identify measured MIC obtained with Enterococcus faecium for CCCOc1nccc2c(-c3cnc(-c4ccc(C(=O)O)nc4)s3)n[nH]c12 .
2

Provide MIC, tested on Enterococcus faecium, for CCCc1cccc2c(-c3cnc(-c4cnc(C(=O)O)cc4C)s3)n[nH]c12 .
0.013

Report measured MIC on Enterococcus faecium; entry: CCCc1cccc2c(-c3cnc(-c4cnc(C(=O)O)c(F)c4)s3)n[nH]c12
0.25

Please report the measured MIC for CCCc1c(O)ccc2c(-c3cnc(-c4ccc(C(=O)O)c(F)c4)s3)n[nH]c12 tested on Enterococcus faecium.
0.02

Report measured MIC on Enterococcus faecium; entry: CCCc1cccc2c(-c3cnc(-c4ccc(CC(=O)O)nc4)s3)n[nH]c12
4

System Enterococcus faecium. Read-out MIC. Item CCCc1cccc2c(-c3cnc(-c4ccc(C(=O)O)c(F)c4)s3)n[nH]c12 . Report value.
0.06

Write down measured MIC (Enterococcus faecium) for this compound. CCOc1nccc2c(-c3cnc(-c4cnc(C(=O)O)cc4C)s3)n[nH]c12
0.5

Fill: MIC (Enterococcus faecium) for this compound CCCc1cccc2c(-c3cnc(-c4cnc(C(=O)O)c(OC)c4)s3)n[nH]c12
4

Tell me MIC of CCCc1cccc2c(-c3cnc(-c4ccc(C(=O)O)cn4)s3)n[nH]c12 when tested on Enterococcus faecium.
4

Please indicate recorded MIC of CCCc1cccc2c(-c3cnc(-c4cnc(C(=O)OC)c(O)c4)s3)n[nH]c12 measured with Enterococcus faecium.
2

Lab note: Enterococcus faecium assay, enter MIC for CCCc1c(O)ccc2c(-c3cnc(-c4cnc(C(=O)O)c(O)c4)s3)n[nH]c12 here
0.25

Please look at CCOc1cccc2c(-c3cnc(-c4ccc(C(=O)O)c(F)c4)s3)n[nH]c12 and tell me its recorded MIC on Enterococcus faecium.
2

State the measured MIC (Enterococcus faecium) of C=CCc1cccc2c(-c3cnc(-c4ccc(C(=O)O)nc4)s3)n[nH]c12
0.125

Please respond with reported MIC (system Enterococcus faecium) for CCCc1c(OC)ccc2c(-c3cnc(-c4ccc(C(=O)O)c(F)c4)s3)n[nH]c12 .
0.03

Tell me its MIC on Enterococcus faecium: CCCOc1nccc2c(-c3cnc(-c4cnc(C(=O)O)cc4C)s3)n[nH]c12
8
